Tested system: T1, TJP3_3, O95049
T1 sequence (O95049 375-456, limits assumed, looked up): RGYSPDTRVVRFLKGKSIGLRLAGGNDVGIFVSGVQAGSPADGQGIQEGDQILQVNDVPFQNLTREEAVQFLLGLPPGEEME
Assay: holdup assay
Design: key: below the threshold = too weak to quantify, mostly under pKd 3.1 to 4
Condition set: plain residues with an end cap or a label only (N-terminal biotin on a linker: ttds)

Binder	pKd
SRPQRTQTQV [HPV67-E6, A4U7F2]	below the threshold
ERKLSSESQV [LRP4, O75096]	below the threshold
TVASEKESVM [SLC1A5, Q15758]	below the threshold
